assay: Compound cytotoxicity, XTT-based colorimetric assay; type: cell-based; conditions: human, uninfected MT2 cells, day 4, XTT
PARAMETER: CC50 at 4 day

These solved cases illustrate the format of a correct answer.
>  <MOLECULE>
Cn1nc(NS(C)(=O)=O)c2c(Cl)ccc(-n3c([C@H](Cc4cc(F)cc(F)c4)NC(=O)Cn4nc(C(F)F)c5c4C(F)(F)[C@@H]4C[C@H]54)nc4cc(-c5ccccc5Cl)ccc4c3=O)c21 (atropisomer, axis not shown; (aR)) [Example 43]

>  <CC50 at 4 day>
> 1000 nM

$$$$
>  <MOLECULE>
Cc1cc(F)ccc1-c1ccc2c(=O)n(-c3ccc(S(=O)(=O)N4CCOCC4)cc3)c([C@H](Cc3cc(F)cc(F)c3)NC(=O)Cn3ccc(C4CC4)n3)nc2c1 [Example 102]

>  <CC50 at 4 day>
> 1000 nM

$$$$
>  <MOLECULE>
Cc1ncc(-c2ccc3c(=O)n(-c4ccc(Cl)c5c(NS(C)(=O)=O)nn(CC(F)(F)F)c45)c([C@H](Cc4cc(F)cc(F)c4)NC(=O)Cn4nc(C(F)F)c5c4C(F)(F)[C@@H]4C[C@H]54)nc3c2)cn1 [Example 166]

>  <CC50 at 4 day>
> 500 nM

$$$$

Okay, next one:
Input line: Look up CC50 at 4 day for this molecule: O=C(Cn1nc(C(F)F)cc1C(F)F)N[C@@H](Cc1cc(F)cc(F)c1)c1nc2cc(-c3ccccc3F)ccc2c(=O)n1-c1ccc(Cl)c2c(NS(=O)(=O)C3CC3)nn(CC(F)F)c12 (atropisomer, axis not shown) [Example 136]
Output line: > 1000 nM
